// data source = ChEMBL document CHEMBL1128041

- assay protocol: Solubility at pH 5.2
- Format: physicochemical
- condition label: buffer
assay metric: solubility (µg/mL)
Numeric only. Scale: µg/mL

Asked: Look up solubility: `CC(C)[C@@H]1[C@H](OC(=O)N[C@@H](Cc2ccccc2)[C@H](O)CN2CCN(Cc3cc(Br)cs3)C[C@H]2C(=O)NC(C)(C)C)CCS1(=O)=O`
Given back: 37.2

Asked: Look up solubility: `CC(C)[C@@H]1[C@H](OC(=O)N[C@@H](Cc2ccccc2)[C@H](O)CN2CCN(Cc3cc4sccc4s3)C[C@H]2C(=O)NC(C)(C)C)CCS1(=O)=O`
Given back: 6.9

Asked: Look up solubility: `CC(C)[C@@H]1[C@H](OC(=O)N[C@@H](Cc2ccccc2)[C@H](O)CN2CCN(CCc3cccs3)C[C@H]2C(=O)NC(C)(C)C)CCS1(=O)=O`
Given back: 1270

Asked: Look up solubility: `CC(C)[C@@H]1[C@H](OC(=O)N[C@@H](Cc2ccccc2)[C@H](O)CN2CCN(Cc3cc4ccsc4s3)C[C@H]2C(=O)NC(C)(C)C)CCS1(=O)=O`
Given back: 11.1

###

assay metric: pIC50
Worth noting: pIC50 values are minus log10 of concentrations stated in mol/L.

Asked: Give the reported pIC50 for `CC(C)[C@@H]1[C@H](OC(=O)N[C@@H](Cc2ccccc2)[C@H](O)CN2CCN(Cc3csc4ccc(Cl)cc34)C[C@H]2C(=O)NC(C)(C)C)CCS1(=O)=O` (system: Human immunodeficiency virus type 1 protease (Human immunodeficiency virus 1)).
Given back: 9.33

###

- assay protocol: Maximal plasma concentration was determined.
- Assay type: ADME, organism-based
- condition label: rat
assay metric: Cmax

Asked: Look up Cmax: `CC(C)[C@@H]1[C@H](OC(=O)N[C@@H](Cc2ccccc2)[C@H](O)CN2CCN(CCc3cccs3)C[C@H]2C(=O)NC(C)(C)C)CCS1(=O)=O`
Given back: > 1000 nM
